Origin of the recorded values: patent US6835382B2

Biological target: murine E^d MHC class II allele (Mus musculus, UniProt P01904+P01915)
Sequence (P01904 26-255): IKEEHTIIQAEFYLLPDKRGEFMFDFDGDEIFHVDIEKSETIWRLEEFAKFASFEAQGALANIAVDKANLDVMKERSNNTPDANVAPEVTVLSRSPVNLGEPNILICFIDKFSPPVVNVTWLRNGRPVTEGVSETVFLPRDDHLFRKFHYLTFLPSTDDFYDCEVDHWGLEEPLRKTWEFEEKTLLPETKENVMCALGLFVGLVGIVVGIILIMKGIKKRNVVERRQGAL
Sequence (P01915 27-264 limits assumed): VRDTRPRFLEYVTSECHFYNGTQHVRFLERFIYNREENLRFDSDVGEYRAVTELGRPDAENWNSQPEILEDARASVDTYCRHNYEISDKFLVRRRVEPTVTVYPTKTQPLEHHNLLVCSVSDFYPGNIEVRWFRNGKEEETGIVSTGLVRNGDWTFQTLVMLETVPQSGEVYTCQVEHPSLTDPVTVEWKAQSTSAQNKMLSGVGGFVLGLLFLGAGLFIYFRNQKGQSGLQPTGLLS
Assay: simultaneous assay, E^d allele (A20 APC, G28.C9 T hybridoma, HEL106-116; HT-2 [3H]TdR readout)
Assay type: cell-based
Set-up: The A20 and CH27 B cell lymphoma lines express H-2^d and H-2^k alleles, respectively; endogenous in cells; host or cells: A20 B cell lymphoma (mitomycin C-treated or paraformaldehyde-fixed)
Conditions: Table 7; AE peptide 64 μM; supernatant 1:4
Non-standard residues stand in square brackets, D forms with d. Cit = NC(=O)NCCC[C@H](N)C(=O)O
Recorded measurements of Times Baseline Response, E^d, one per entry

Q. Recorded Times Baseline Response, E^d for Ac-LRMKLPK-NH2 [AE114] , please?
A. 10.6

Q. Recorded Times Baseline Response, E^d for Ac-LRMK H PK-NH2 (Ac-LRMKHPK-NH2) [AE228] , please?
A. 8.5

Q. Recorded Times Baseline Response, E^d for Ac-LRMK D PK-NH2 (Ac-LRMKDPK-NH2) [AE230] , please?
A. 0.6

Q. Recorded Times Baseline Response, E^d for Ac-LRMK K PK-NH2 (Ac-LRMKKPK-NH2) [AE229] , please?
A. 13.2

Q. Recorded Times Baseline Response, E^d for Ac-LRMK Cit PK-NH2 (Ac-LRMK[Cit]PK-NH2; SMILES CSCC[C@H](NC(=O)[C@H](CCCNC(=N)N)NC(=O)[C@H](CC(C)C)NC(C)=O)C(=O)N[C@@H](CCCCN)C(=O)N[C@@H](CCCNC(N)=O)C(=O)N1CCC[C@H]1C(=O)N[C@@H](CCCCN)C(N)=O) [AE226] , please?
A. 9.0

Continuing:
Q. Recorded Times Baseline Response, E^d for Ac-LRMK Q PK-NH2 (Ac-LRMKQPK-NH2) [AE233] , please?
A. 11.5

Q. Recorded Times Baseline Response, E^d for Ac-LRMK N PK-NH2 (Ac-LRMKNPK-NH2) [AE232] , please?
A. 12.5

Q. Recorded Times Baseline Response, E^d for Ac-LRMK F PK-NH2 (Ac-LRMKFPK-NH2) [AE234] , please?
A. 14.2

* * *

Biological target: murine E^d MHC class II allele (Mus musculus, UniProt P01904+P01915)
Test: simultaneous assay, E^d allele (A20 APC, G28.C9 T hybridoma, HEL106-116; HT-2 [3H]TdR readout)
Type: cell-based
Design: The A20 and CH27 B cell lymphoma lines express H-2^d and H-2^k alleles, respectively; endogenous in cells; host or cells: A20 B cell lymphoma (mitomycin C-treated or paraformaldehyde-fixed)
Conditions: Table 3; AE peptide 64 μM; supernatant 1:4
assay-endpoint: Times Baseline Response, Ed
No unit in the answer, only the number.

Solved cases (4 shown):
Q. Recorded Times Baseline Response, Ed for Ac-HArg RMKLPK-NH2 [AE182] , please?
A. 18.8

Q. Recorded Times Baseline Response, Ed for Ac-N RMKLPK-NH2 [AE187] , please?
A. 6.3

Q. Recorded Times Baseline Response, Ed for Ac-YRMKLPK-NH2 [AE113] , please?
A. 12.3

Q. Recorded Times Baseline Response, Ed for Ac-D RMKLPK-NH2 [AE185] , please?
A. 1.2

Consider now this further substance.
Q. Recorded Times Baseline Response, Ed for Ac-F RMKLPK-NH2 [AE189] , please?
A. 12.1
